assay: Efflux ratio of apparent permeability across basolateral to apical side in human Caco2 cells; assay type: ADME, cell-based; conditions: Caco-2
quantity.kind: efflux ratio
Lab note: write the figure by itself, no unit.

// returns reported efflux ratio for input Cc1ncoc1-c1nnc(SCCCN2CC3CCN(c4ccc(C(F)(F)F)cc4F)C3C2)n1C (stereo in doubt; 8b)
0.55

###

molecular target: Cytochrome P450 2C9 (Homo sapiens, UniProt P11712); experiment: Inhibition of recombinant human CYP2C9 expressed in baculosomes preincubated for 10 mins followed by cofactor addition measured every minute for 10 mins using 7-methoxy-4-trifluoromethylcoumarin-3-acetic acid as substrate by CYPEX assay
Sequence (P11712 whole entry): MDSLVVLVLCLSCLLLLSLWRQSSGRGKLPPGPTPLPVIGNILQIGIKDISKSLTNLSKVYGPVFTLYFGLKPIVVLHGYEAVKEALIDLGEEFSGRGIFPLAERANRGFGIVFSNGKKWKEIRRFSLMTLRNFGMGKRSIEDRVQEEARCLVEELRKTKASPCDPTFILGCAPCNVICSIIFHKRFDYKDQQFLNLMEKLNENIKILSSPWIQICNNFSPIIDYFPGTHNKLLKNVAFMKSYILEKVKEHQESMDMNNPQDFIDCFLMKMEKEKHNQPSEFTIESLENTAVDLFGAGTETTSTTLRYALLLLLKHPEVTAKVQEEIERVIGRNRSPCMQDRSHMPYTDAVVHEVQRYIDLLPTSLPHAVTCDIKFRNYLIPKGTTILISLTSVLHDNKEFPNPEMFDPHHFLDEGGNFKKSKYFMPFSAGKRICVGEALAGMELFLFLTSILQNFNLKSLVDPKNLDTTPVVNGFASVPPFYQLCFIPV
pIC50: −log10 of the molar value.
quantity.kind: pIC50

Use the examples below as a reference point.
>>> meas_value("Cn1c(SCCCN2CC3CCN(c4ccccc4)C3C2)nnc1C1CCOCC1 (stereo in doubt; 62a)")
"< 4.77"
>>> meas_value("CC(C)Oc1ccccc1N1CCC2CN(CCCSc3nnc(-c4cnccn4)n3C)CC21 (stereo in doubt; 35b)")
"< 6.00"
>>> meas_value("Cn1c(SCCCN2CC3CCN(c4ccc(F)cc4F)C3C2)nnc1-c1cnccn1 (stereo in doubt; 36b)")
"< 6.00"
>>> meas_value("Cn1c(SCCCN2CC3CCN(c4ccc(C(F)(F)F)cc4)C3C2)nnc1-c1cnccn1 (stereo in doubt; 17b)")
"< 5.70"
>>> meas_value("Cc1ncoc1-c1nnc(SCCCN2CC3CCN(c4ccc(F)cc4)C3C2)n1C (stereo in doubt; 9a)")
"< 5.30"

Short answer please: pIC50, Cytochrome P450 2C9 (Homo sapiens, UniProt P11712), entry Cn1c(SCCCN2CC3CCN(c4ccc(C(F)(F)F)cc4)C3C2)nnc1-c1cc[nH]c(=O)c1 (stereo in doubt; 55b)
< 4.70

Short answer please: pIC50, Cytochrome P450 2C9 (Homo sapiens, UniProt P11712), entry Cc1ncoc1-c1nnc(SCCCN2CC3CCN(c4ccc(C(F)(F)F)cc4F)C3C2)n1C (stereo in doubt; 8b)
< 5.52

Short answer please: pIC50, Cytochrome P450 2C9 (Homo sapiens, UniProt P11712), entry Cc1ncoc1-c1nnc(SCCCN2CC3CCN(c4ccccc4)C3C2)n1C (stereo in doubt; 6b)
< 6.00

Short answer please: pIC50, Cytochrome P450 2C9 (Homo sapiens, UniProt P11712), entry Cn1c(SCCCN2CC3CCN(c4ccccc4C(F)(F)F)C3C2)nnc1-c1cccnc1 (stereo in doubt; 52a)
< 5.52
